# experiment summary: endothelial E-selectin expression blockers – imaging, HUVEC, immunofluorescence, MLSMR starter and 10KST1 sets, primary screen (AID 487);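 note: 100% = median nuclei count of all wells on the same plate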
# experimental setup: HUVEC TNFalpha-induced E-selectin immunofluorescence imaging, at 2 µM; measured here: cell number, toxicity
measured endpoint: nuclei count (%)
// return numeric value only (unit: %, not printed)

>>> value_observed("O=C(CSc1nnc(-c2cnccn2)n1Cc1ccco1)c1ccc(Cl)cc1")
124
>>> value_observed("COc1ccc2c(c1)CCc1cc(C(=O)N3CCN(c4ccc(N5CCOCC5)nn4)CC3)sc1-2")
114
>>> value_observed("Cc1nc2ccccn2c1P(=O)(N1CCCCC1)N1CCCCC1")
108

Dear colleague, I am looking for the recorded nuclei count of the following molecule: COc1ccc(C2c3c(-c4ccccc4O)n[nH]c3C(=O)N2CCc2ccc(OC)c(OC)c2)cc1 (stereo unspecified) 114

Same read-out for Cc1cc(NC(=O)C2CCCC2)nc2c1c(=O)oc1ccccc12 ? 106

What about this molecule? CCOC(=O)C1=C(Cn2cnc3ccccc32)NC(=O)NC1c1cc(C)ccc1C (stereo unspecified) 104

Subsequent entry: COC(=O)c1sccc1NC(=O)c1ccco1 89.7

What about this molecule? CCOC(=O)c1sc(NS(=O)(=O)c2ccc(NC(C)=O)cc2)nc1C 94.9

Also CC1(C)C(c2cccs2)=[N+]([O-])C2(CCCCC/C2=N\O)N1O (stereo unspecified) , if possible. 112

Input Cc1nc2ccc(NC(=O)N3CCSCC3)cc2s1 96.5

Next molecule: O=C(Nc1cccc(Cl)c1)N1CCN(c2ncccn2)CC1 84.8

====

# experiment summary: inhibitors of TNFa-induced NFkB p65 translocation, primary screen, imaging, HUVEC, MLSMR starter and 10KST1 sets (AID 438);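 note: compound added about 3h40 before a 20 min TNFalpha stimulation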;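 for inhibition: signal is the nuclear over cytoplasmic p65 intensity ratio per well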
# experimental setup: HUVEC TNFa-induced p65 nuclear translocation; at 2 µM, stronger effect = higher value, 0% TNFa-plus-vehicle, 100% no-TNFa wells
measured endpoint: inhibition (%)
Give the value, in units of %, as a plain number.

Here are 2 compounds together with their reported answers.
>>> value_observed("O=S(=O)(NCC1CCCO1)c1cccc(C(F)(F)F)c1 (stereo unspecified)")
-4.8
>>> value_observed("CC(C)(C)c1ccc(-c2nnc(SCCC#N)n2C2CCCC2)cc1")
5.5

# inhibition lookup, item COCCN(C(=O)CNC(=O)c1ccco1)C(C(=O)NC1CCCCC1)c1cccc(OC)c1 (stereo unspecified) -9.5

Now try O=C(OC1CCc2ccccc2C1=O)c1ccccc1O (stereo unspecified) . 3.8

Now this one: Cc1cc(C)n2c(SCC(=O)Nc3cc(C)on3)nnc2n1 -14.1

Lookup O=C(C1CCN(c2nnc(-n3cccc3)s2)CC1)N1CCN(Cc2ccc3c(c2)OCO3)CC1 -9.2

====

# experiment summary: inhibitors of TNFa-induced NFkB p65 translocation, primary screen, imaging, HUVEC, MLSMR starter and 10KST1 sets (AID 438);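 note: compound added about 3h40 before a 20 min TNFalpha stimulation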
# experimental setup: HUVEC TNFa-induced p65 nuclear translocation; measured here: nuclei count (cytotoxicity indicator), at 2.08 µM
Tick Satisfied if cell count is 500 or greater. Tick Not satisfied if cell count is less than 500.

A selection of reference data follows.
>>> group_label("CCCNC(=O)C1=C(C)C(=O)OC12CCC(C)CC2 (stereo unspecified)")
"Satisfied"
>>> group_label("O=C(NCC1CCCO1)c1cccc(N2C(=O)C3C4C=CC(C4)C3C2=O)c1 (stereo unspecified)")
"Satisfied"
>>> group_label("COc1ccc(N=C2C(=O)Nc3ccccc32)cc1")
"Satisfied"
>>> group_label("CCOC(=O)c1c(NC(=O)c2cccs2)sc2c1CCN(C(=O)OCC)C2")
"Not satisfied"
>>> group_label("CCn1c(SCC(=O)Nc2ccccc2F)nc2c(c1=O)SC(C)C2 (stereo unspecified)")
"Not satisfied"
>>> group_label("COC(=O)CCn1nnc(-c2ccc(C)cc2)n1")
"Not satisfied"

Quick check: does CCOc1ccc(N(CC(=O)NC2CCCC2)S(=O)(=O)c2c(C)[nH]c(=O)[nH]c2=O)cc1 have cell count greater than or equal to 500? Satisfied

Entry CC(=O)OCC(=O)c1ccc2ccn(C(C)=O)c2c1 please Satisfied

Param item: COC(=O)c1ccnc(/C=N/O)c1 Satisfied

====

# experiment summary: reduction of polyQ htt aggregates in cells – imaging, exon1htt(103Q)mCFP cells, high-content imaging, primary screen (AID 483);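 note: compound exposure lasted 3 days before fixation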
# experimental setup: exon1htt(103Q)mCFP cell line, aggregate imaging, at 2 µM; stronger effect = higher value
measured endpoint: inhibition of aggregation (%)
Your answer should be a plain number; it is taken to be in %.

Would you kindly share the measured inhibition of aggregation for CC1CCCN(c2ccc(C(=O)NCc3cccs3)cn2)C1 (stereo unspecified) ? -22.9

====

# experiment summary: inhibitors of TNFa-induced NFkB p65 translocation, primary screen, imaging, HUVEC, MLSMR starter and 10KST1 sets (AID 438);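 note: compound added about 3h40 before a 20 min TNFalpha stimulation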
# experimental setup: HUVEC TNFa-induced p65 nuclear translocation; measured here: nuclei count (cytotoxicity indicator), at 2.08 µM
# cell count annotations
Lab note: jot down the number only; don't add units.

>>> value_observed("C=Cn1c(N2CCOCC2)nc2c1c(=O)[nH]c(=O)n2C")
719
>>> value_observed("COc1ccc(C(=O)c2coc3ccc(O)c(CN4CCCCC4)c23)cc1")
828
>>> value_observed("CC(C)n1nnnc1SCC(=O)Nc1ccccc1N1CCOCC1")
539
>>> value_observed("O=C(CSc1nc(C2CCCCC2)n(-c2ccccc2)n1)NCCN1C(=O)CSC1=O")
382
>>> value_observed("CCn1ncc(C2=NOC(C(=O)Nc3ccc4c(c3)OCO4)C2)c1C (stereo unspecified)")
640
>>> value_observed("COc1ccc(CN(CC(=O)NCC2CCCO2)C(=O)CCC(=O)Nc2cc(C)on2)cc1 (stereo unspecified)")
242

Which cell count value is on record for C=CCNc1oc(-c2cccc3ccccc23)nc1C#N ? 365

Same read-out for O=C(Nc1ccc(F)cc1)N(Cc1ccco1)Cc1cc2cc3c(cc2[nH]c1=O)OCO3 ? 473

One more molecule: CC12CCC(C(=O)O)(c3nc(C#N)c(C#N)nc31)C2(C)C (stereo unspecified) 437

Likewise for COc1ccc(C)cc1C(=O)CCC(=O)Nc1ccccc1N1CCOCC1 ? 382

Now consider Cc1ccc(C)c(OCC(O)CN2C(C)CCCC2C)c1 (stereo unspecified) and answer again. 379

====

# experiment summary: reduction of polyQ htt aggregates in cells – imaging, exon1htt(103Q)mCFP cells, high-content imaging, primary screen (AID 483);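 note: compound exposure lasted 3 days before fixation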;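 for nuclei count: percent of the per-plate median nuclei count of sample wells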
# experimental setup: exon1htt(103Q)mCFP cell line, aggregate imaging, at 2 µM; measured here: cell count, toxicity
measured endpoint: nuclei count (%)
Numeric answer only, unit % assumed.

>>> value_observed("COc1ccc(-c2nc(SC)n(S(=O)(=O)c3ccccc3)n2)cc1")
99.4

Which nuclei count value is on record for Cc1cc2cc(CNC(=O)c3ccc4c(c3)OCO4)ccc2[nH]1 ? 106

Moving on to COc1ccc(OC)c2[nH]c(=O)c(CCNC(=O)CC(C)C)cc12 91.9

Would you mind doing O=C(NCCC1=CCCCC1)C1CCN(S(=O)(=O)c2cccc3nsnc23)CC1 as well? 94.6

// repeat for CCOC(=O)c1cc(CC)sc1NC(=O)COC and report 86.3

Note, next up: CCOc1ccc(N(CC(=O)NC2CCCC(C)C2C)S(=O)(=O)c2c(C)noc2C)cc1 (stereo unspecified) 131

Continue with Cc1noc(C)c1S(=O)(=O)N1CCC(C(=O)N2CCN(Cc3ccc4c(c3)OCO4)CC2)CC1 107

// next record COCCNC(=O)CCCCCN1C(=O)CCC1=O 85.3

Please answer likewise for COc1ccccc1N1CCN(c2cc(N3CCCC3)nc(C)n2)CC1 102

Likewise for COc1ccc(N(CC(=O)N2CCCCC2)S(=O)(=O)c2ccccc2)c(OC)c1 ? 104

How about Cc1nc2cc(CO)ccc2n1C ? 92.7

====

# measured target: Voltage-gated potassium channel subunit beta-2 (Rattus norvegicus)
# experiment summary: enhancers of rat Kvbeta2 NADPH turnover – biochemical, NADPH fluorescence, primary screen (AID 623);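 note: fluorescence intensity change per second fitted from 20 to 320 s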
# experimental setup: Recombinant KvBeta, NADPH fluorescence decrease slope, 10 min; at 10 µM; stronger effect = lower value
Listed next: entries and their corresponding NADPH fluorescence slope.
A bare number is all that is needed in reply.

Before answering, review these 3 worked examples.
>>> value_observed("CCS(=O)(=O)N1CCC(C(=O)N2CCOCC2)CC1")
"-2.5e-05"
>>> value_observed("Cc1cccc(NC(=O)CC2NC3CCCCC3NC2=O)c1 (stereo not drawn)")
"-2.9e-05"
>>> value_observed("CC(C)(C)NC(=O)C(Cc1ccccc1)NS(=O)(=O)c1cccc2nsnc12 (stereo not drawn)")
"1.1e-05"

Any idea what its NADPH fluorescence slope is? The compound is COc1ccc(-c2nnn(CCc3nn[nH]n3)n2)cc1OC -2.6e-05

# repeat for CCCn1nnc(NCc2ccc(OCc3cccs3)c(OC)c2)n1 -3.7e-05
